# Time per entry
# Test system: Mus musculus
# experiment_notes: Antidepressant-like activity in mouse assessed as immobility time at 0.5 mg/kg, ip by forced swimming test
# Type: functional
# applied_conditions: route intraperitoneal
Hi! Could you send only the number? It should be in s, unit omitted.

Item Cc1nccn1CC1CCc2c(c3ccccc3n2C)C1=O (centres undefined) has what recorded Time?
130.2

Item "O=C(NNc1ccccc1)c1cnc2ccccc2n1" has what recorded Time?
126

Item "O=C(Nc1ccc([N+](=O)[O-])cc1)c1cnc2ccccc2n1" has what recorded Time?
142

Item "CCCNC(=O)c1cnc2ccccc2n1" has what recorded Time?
148

Item "Cc1ccc(NC(=O)c2cnc3ccccc3n2)cc1" has what recorded Time?
140

Item "CCCCNC(=O)c1cnc2ccccc2n1" has what recorded Time?
121

Item "O=C(NC1CCCCC1)c1cnc2ccccc2n1" has what recorded Time?
119

Item "Cc1c(Cl)cccc1NC(=O)c1cnc2ccccc2n1" has what recorded Time?
120

Item "O=C(NC1CCCC1)c1cnc2ccccc2n1" has what recorded Time?
125

* * *

# assay_system: 5-hydroxytryptamine receptor 3A (Cavia porcellus, UniProt O70212)
# Sequence (O70212 whole entry): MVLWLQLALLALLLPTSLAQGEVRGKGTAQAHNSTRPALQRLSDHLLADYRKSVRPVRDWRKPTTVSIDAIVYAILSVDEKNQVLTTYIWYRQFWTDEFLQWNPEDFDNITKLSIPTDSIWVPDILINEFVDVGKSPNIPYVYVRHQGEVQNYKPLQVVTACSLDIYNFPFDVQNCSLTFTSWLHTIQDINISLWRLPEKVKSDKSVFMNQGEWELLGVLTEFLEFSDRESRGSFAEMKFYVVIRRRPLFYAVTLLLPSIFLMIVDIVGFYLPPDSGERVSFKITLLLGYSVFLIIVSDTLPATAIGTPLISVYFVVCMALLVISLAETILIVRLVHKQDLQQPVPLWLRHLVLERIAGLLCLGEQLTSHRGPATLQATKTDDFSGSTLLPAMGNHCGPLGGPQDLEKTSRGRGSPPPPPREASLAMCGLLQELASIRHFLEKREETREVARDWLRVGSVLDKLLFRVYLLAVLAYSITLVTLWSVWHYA
# experiment_notes: Antagonist activity at 5HT3 receptor in guinea pig ileum longitudinal muscle myenteric plexus assessed as inhibition of 2-methyl-5-HT-induced contraction
# Type: functional, tissue-based
# applied_conditions: read-out: pA2 (converted)
# Kb per entry
Hi! Could you send only the number? It should be in µM, unit omitted.

Consider the reported Kb for these molecules:
INSERT INTO assay_data (smiles, assay_system, recorded_endpoint, unit_abbreviation, measurement) VALUES
  ('O=C(NC1CCCC1)c1cnc2ccccc2n1', '5-hydroxytryptamine receptor 3A (Cavia porcellus, UniProt O70212)', 'Kb', 'µM', 0.316),
  ('COc1ccc(NC(=O)c2cnc3ccccc3n2)cc1', '5-hydroxytryptamine receptor 3A (Cavia porcellus, UniProt O70212)', 'Kb', 'µM', 10),
  ('O=C(Nc1ccccc1NC(=O)c1cnc2ccccc2n1)c1ccccc1', '5-hydroxytryptamine receptor 3A (Cavia porcellus, UniProt O70212)', 'Kb', 'µM', 100),
  ('Cc1ccc(NC(=O)c2cnc3ccccc3n2)cc1', '5-hydroxytryptamine receptor 3A (Cavia porcellus, UniProt O70212)', 'Kb', 'µM', 6.31),
  ('O=C(Nc1ccc([N+](=O)[O-])cc1)c1cnc2ccccc2n1', '5-hydroxytryptamine receptor 3A (Cavia porcellus, UniProt O70212)', 'Kb', 'µM', 10);

Item "O=C(NCc1ccccc1)c1cnc2ccccc2n1" has what recorded Kb?
2

Item "O=C(Nc1cccc(Cl)c1)c1cnc2ccccc2n1" has what recorded Kb?
1.58

Item "O=C(Nc1nc2ccccc2s1)c1cnc2ccccc2n1" has what recorded Kb?
31.6
